Attribution: ChEMBL document CHEMBL5678800

# METHOD_SUMMARY: Plasma concentration in nude mouse xenografted with mouse IGF-1R-Sal cells at 12.5 mg/kg, po administered for 2 hrs by LC-MS/MS analysis
# Type: ADME, organism-based
REPORTED_PROPERTY: concentration at 2 h (µM)
Supply the numeric figure in µM, leaving out any unit text.

Which concentration at 2 h is listed for C[C@@]1(C(=O)Nc2ccc(F)nc2)CCCN1c1nc(Nc2cc(C3CC3)n[nH]2)c2cccn2n1 [BMS-754807] ?
0.029

====

# METHOD_SUMMARY: Toxicity in nude mouse xenografted with human GEO cells assessed as mortality at 6.25 mg/kg, po administered for 3 days in presence of cetuximab at 0.125 mg/kg relative to control
# Format: organism-based
# TEST_CONDITIONS: in vivo, time 3 day
REPORTED_PROPERTY: mortality at 72 h (%)
// units = %; emit number, no label

Would you kindly share the measured mortality at 72 h for C[C@@]1(C(=O)Nc2ccc(F)nc2)CCCN1c1nc(Nc2cc(C3CC3)n[nH]2)c2cccn2n1 [BMS-754807] ?
0
